target: Genome polyprotein (Hepatitis C virus genotype 1a (isolate H77), UniProt P27958); experiment: Continuous Spectrophotometric Assay
Sequence (P27958 1027-1657 limits assumed): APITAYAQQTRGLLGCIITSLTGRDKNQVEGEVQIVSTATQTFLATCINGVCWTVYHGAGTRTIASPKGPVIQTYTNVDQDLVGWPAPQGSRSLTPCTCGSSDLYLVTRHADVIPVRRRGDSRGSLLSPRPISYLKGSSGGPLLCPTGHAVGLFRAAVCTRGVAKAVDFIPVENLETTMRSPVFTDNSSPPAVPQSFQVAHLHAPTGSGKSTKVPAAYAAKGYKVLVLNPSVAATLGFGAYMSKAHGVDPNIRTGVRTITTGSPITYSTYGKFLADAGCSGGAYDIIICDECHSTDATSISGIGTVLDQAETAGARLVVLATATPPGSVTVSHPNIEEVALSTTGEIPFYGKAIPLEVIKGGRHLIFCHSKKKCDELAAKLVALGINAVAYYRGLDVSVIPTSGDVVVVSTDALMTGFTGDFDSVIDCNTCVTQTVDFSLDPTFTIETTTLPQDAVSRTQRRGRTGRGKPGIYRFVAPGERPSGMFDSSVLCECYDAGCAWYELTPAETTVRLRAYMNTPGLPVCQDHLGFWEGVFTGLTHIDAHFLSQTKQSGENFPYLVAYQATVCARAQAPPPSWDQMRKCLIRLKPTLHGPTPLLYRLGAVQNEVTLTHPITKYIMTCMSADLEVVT
property-measured: pKi
# pKi = -log10(concentration in molar units)

Guide cases for pKi, answers given:
# smiles-str, obs-value
records = [
    ("C=CCNC(=O)C(=O)[C@@H]1CCCCCCCCC[C@H](NC(=O)N[C@H](CN2C(=O)C3CCC(C3)C2=O)C(C)(C)C)C(=O)N2C[C@H]3[C@@H]([C@H]2C(=O)N1)C3(C)C", 8.52),
    ("C=CCNC(=O)C(=O)[C@@H]1CCCCCCCCC[C@H](NC(=O)N[C@H](CN(C)S(=O)(=O)c2ccccn2)C(C)(C)C)C(=O)N2C[C@H]3[C@@H]([C@H]2C(=O)N1)C3(C)C", 8.15),
    ("C=CCNC(=O)C(=O)[C@@H]1CCCCCCCCC[C@H](NC(=O)N[C@H](C(=O)C2CC2)C2CCCCC2)C(=O)N2C[C@H]3[C@@H]([C@H]2C(=O)N1)C3(C)C", 8.22),
]

Lab note: Genome polyprotein (Hepatitis C virus genotype 1a (isolate H77), UniProt P27958) assay, enter pKi for C=CCNC(=O)C(=O)[C@@H]1CCCCCCCCC[C@H](NC(=O)N[C@H](CN(C)S(=O)(=O)N(C)C)C(C)(C)C)C(=O)N2C[C@H]3[C@@H]([C@H]2C(=O)N1)C3(C)C here
7.89

Send back Genome polyprotein (Hepatitis C virus genotype 1a (isolate H77), UniProt P27958) pKi of C=CCNC(=O)C(=O)[C@@H]1CCCCCCCCC[C@H](NC(=O)N[C@H](CN(C)S(C)(=O)=O)C(C)(C)C)C(=O)N2C[C@H]3[C@@H]([C@H]2C(=O)N1)C3(C)C only.
8.52

----------
# key: entry, value: pKi
Biological target: Genome polyprotein (Hepatitis C virus genotype 1a (isolate H77), UniProt P27958)
Assay: Continuous Spectrophotometric Assay
Conditions: pH 6.5; 30 °C
Experimental: Proteolytic cleavage of the ester linkage between the Nva (L-norvaline) and the chromophore (PAP) was monitored for change in absorbance at 370 nm. Initial velocities were determined using linear regression and kinetic constants were obtained by fitting the data to the Michaelis-Menten equation.
pKi is a log-scale quantity: -log10 of the concentration expressed in molar.

# smiles-str, pKi
records = [
    ("CN(C)C(=O)[C@@H](NC(=O)CNC(=O)C(=O)[C@@H]1CCCCCCCCCC[C@H](NC(=O)NC(C)(C)C)C(=O)N2C[C@H]3[C@@H]([C@H]2C(=O)N1)C3(C)C)c1ccccc1", 8.22),
]

Please indicate pKi recorded for CN(C)C(=O)[C@@H](NC(=O)CNC(=O)C(=O)[C@@H]1CCCC/C=C/CCCC[C@H](NC(=O)OC(C)(C)C)C(=O)N2C[C@H]3[C@@H]([C@H]2C(=O)N1)C3(C)C)c1ccccc1
8.30

Quickly give me recorded pKi for C=CCCCC[C@H](NC(=O)[C@@H]1[C@@H]2[C@H](CN1C(=O)[C@H](CCCCC=C)NC(=O)OC(C)(C)C)C2(C)C)C(=O)C(N)=O
6.60

Please supply the value of reported pKi for the item CC(C)(C)OC(=O)N[C@H]1CCCCCCCCCC[C@@H](C(=O)C(=O)NCC(=O)NCc2ccccc2)NC(=O)[C@@H]2[C@@H]3[C@H](CN2C1=O)C3(C)C
7.05
